Record form. Attribute: Median Titer Binding ELISA (ODmax/2). Fill in for each entry.
Test system: polyclonal antibodies specific for human PCSK9 aa 153-162 or aa 153-165
Assay summary: Binding ELISA: mimotopes coated on plates, detected by mouse sera raised against the original PCSK9 sequence
Study conditions: mimotope coated at 1 μmol/mL; titer = serum dilution where 50% of ODmax is reached

substance="53 (VIPWNLERLT; Artificial Sequence, Mimotope) [compound 53]" result=191,000
substance="49 (SIPWNLERITPPA; Artificial Sequence, Mimotope) [compound 49]" result=163,000
substance="41 (SIPWNLERIA; Artificial Sequence, Mimotope) [compound 41]" result=189,000
substance="38 (SIPWNLERAT; Artificial Sequence, Mimotope) [compound 38]" result=149,000

Qu. Report Median Titer Binding ELISA (ODmax/2) for 21 (SIPWSLERIT; Artificial Sequence, Mimotope) [compound 21] tested on polyclonal antibodies specific for human PCSK9 aa 153-162 or aa 153-165.
Ans. 147,000

----------
Tested on: polyclonal antibodies specific for human PCSK9 aa 153-162 or aa 153-165
Assay summary: Binding ELISA: mimotopes coated on plates, detected by mouse sera raised against the original PCSK9 sequence
Study conditions: mimotope coated at 1 μmol/mL; titer = serum dilution where 50% of ODmax is reached
Outcome measure: Median Titer Binding ELISA (ODmax/2)

Go through the list and state Median Titer Binding ELISA (ODmax/2) for each entry.
1. 26 (SIPWNGERIT; Artificial Sequence, Mimotope) [compound 26]
2. 58 (SVPWNLERTT; Artificial Sequence, Mimotope) [compound 58]
3. 45 (SIPWNLERITPAR; Artificial Sequence, Mimotope) [compound 45]
4. 63 (SQPWNLERIQ; Artificial Sequence, Mimotope) [compound 63]
5. 64 (SIPWSLERLT; Artificial Sequence, Mimotope) [compound 64]
6. 22 (SIPWALERIT; Artificial Sequence, Mimotope) [compound 22]
7. 29 (SIPWNFERITPPR; Artificial Sequence, Mimotope) [compound 29]

Ans.
["56,000", "116,000", "184,000", "167,000", "164,000", "157,000", "186,000"]

----------
Test system: polyclonal antibodies specific for human PCSK9 aa 153-162 or aa 153-165
Assay summary: Binding ELISA: mimotopes coated on plates, detected by mouse sera raised against the original PCSK9 sequence
Study conditions: mimotope coated at 1 μmol/mL; titer = serum dilution where 50% of ODmax is reached
Outcome measure: Median Titer Binding ELISA (ODmax/2)

substance="32 (SIPWNLDRITPPR; Artificial Sequence, Mimotope) [compound 32]" result=151,000
substance="19 (SIPDNLERIT; Artificial Sequence, Mimotope) [compound 19]" result=23,000
substance="71 (VQPWNLERLQ; Artificial Sequence, Mimotope) [compound 71]" result=184,000
substance="9 (SQPWNLERIT; Artificial Sequence, Mimotope) [compound 9]" result=149,000
substance="44 (SIPWNLERITSPR; Artificial Sequence, Mimotope) [compound 44]" result=153,000

Go through the list and state Median Titer Binding ELISA (ODmax/2) for each entry.
1. 12 (SITWNLERIT; Artificial Sequence, Mimotope) [compound 12]
2. 65 (SIPWSLERTT; Artificial Sequence, Mimotope) [compound 65]
3. 25 (SIPWNAERIT; Artificial Sequence, Mimotope) [compound 25]
4. 5 (TIPWNLERIT; Artificial Sequence, Mimotope) [compound 5]

Ans.
1: 124,000; 2: 147,000; 3: 156,000; 4: 198,000
